Cited source: a collection of fitness landscapes (doi:10.1016/j.celrep.2020.107928)

B1: Caulobacter ParB omega fusion; a variant is named by its letters at X, in order, B8GW30 (parent)
chain: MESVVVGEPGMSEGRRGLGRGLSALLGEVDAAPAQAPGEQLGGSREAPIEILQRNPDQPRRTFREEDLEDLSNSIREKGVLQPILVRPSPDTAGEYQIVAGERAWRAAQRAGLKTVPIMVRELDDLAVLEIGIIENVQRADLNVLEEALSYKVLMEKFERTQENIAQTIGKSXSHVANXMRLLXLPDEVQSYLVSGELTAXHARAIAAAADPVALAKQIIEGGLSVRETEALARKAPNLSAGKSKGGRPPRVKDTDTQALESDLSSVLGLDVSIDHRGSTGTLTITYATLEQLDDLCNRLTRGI

- Variants of: B1
- assay: one-hybrid fitness for binding NBS DNA (the Noc-binding site; scaled: cognate 1, non-cognate 0); higher = stronger binding
- particulars: with NBS DNA site
The full ranking holds about 81,000 sequences; the median of “one-hybrid fitness for binding NBS DNA” is about -0.1, and the highest 2% start at about 0.36. Shown is part of a subset that was picked to be rich in the highest values.
measurement-type: one-hybrid fitness for binding NBS DNA

Here is how some variants turned out for one-hybrid fitness for binding NBS DNA.
{"columns": ["changes", "endpoint-result"],
 "data": [
  ["TCDT", "≤ 0.2"],
  ["QGHN", "≤ 0.2"],
  ["SANL", "≤ 0.2"],
  ["QPVN", "≤ 0.2"],
  ["QRHQ", 0.431],
  ["QCHM", "≤ 0.2"]
]}

Consider the variant QSHC and give its recorded one-hybrid fitness for binding NBS DNA.
≤ 0.2
